- Target: cynomolgus monkey CTLA4 (human CTLA4 cDNA with S13N, I17T and L105M) on stably transfected CHO-K1 cells (human cDNA mutated to the cynomolgus monkey extracellular domain) (UniProt P16410)
- Sequence (P16410 36-223, stated change not applied): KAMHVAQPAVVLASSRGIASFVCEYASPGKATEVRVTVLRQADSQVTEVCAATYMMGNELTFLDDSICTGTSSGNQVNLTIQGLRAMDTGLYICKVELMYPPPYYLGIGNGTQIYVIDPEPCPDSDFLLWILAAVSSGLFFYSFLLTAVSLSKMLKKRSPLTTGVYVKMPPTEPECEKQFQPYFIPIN
- Experiment notes: FACS direct binding titration on CHO cells with cynomolgus CTLA4 (head prints IC50)

| Binder | IC50 |
| --- | --- |
| 4CTLAPMP06C10 (VHH) VHH: EVQLVESGGGLVQAGGSLRLSCAASGRTFSNYTIAYFRQAPGREREFAAAISPHGTLRSFADSVKDRFTISRDNAKNTVWLQMNSLKLEDTAVYYCAADPSGWGLRQHSENEYPYWGLGTQVTVSS | 5.47 nM |
| 4CTLAPMP11F1 (VHH) VHH: EVQLVESGGGLVQAGGSLRLSCAASGGTFSFYGMGWFRQAPGKEQEFVADIRTSAGRTYYADSVKGRFTISRDNAKNTVYLQMNSLKPEDTAVYYCAAEMSGISGWDYWGQGTQVTVSS | 5.51 nM |
| 4CTLAPMP2G9 (VHH) VHH: EVQLVKSGGQLVQAGGSLRLSCAATGRTYNSYPLGWFRQAPGKEREFVAAISASGTLRAYADSVKGRFTISRDSAKNTVYLQMNNLKPEDTAVYYCARARSVGWRASHHLSDYDNWGQGTQVTVSS | 2.66 nM |
| 4CTLAPMP03C4 (VHH) VHH: EVQLVESGGGLVQAGGSLRLSCAASGGTFSFYGMGWFRQAPGKEREFVADIRTSAGRTYYADSVKGRFTISRDNAKNTVYLQMNSLKPEDTAVYYCAAEMSGISGWDYWGQGTQVTVSS | 6.73 nM |
